Numbers sourced from patent US7157481B2.

Measured melting point accompanies every entry in the list below.

# Compound, melting point
records = [
    ("CC(C)(C)c1ccc(NC(=O)c2snc(Cl)c2Cl)cc1 [Example 3]", "148 to 149 °C"),
    ("O=C(NCCc1ccc(-c2ccc(Cl)cc2)cc1)c1snc(Cl)c1Cl [Example 23]", "135 to 136 °C"),
    ("CN(C=O)CNC(=O)c1snc(Cl)c1Cl", "87 to 88 °C"),
    ("CC(C)(C)CSCc1ccc(NC(=O)c2snc(Cl)c2Cl)cc1", "91 to 92 °C"),
    ("O=C(Nc1ccccc1C1CCCCCC1)c1snc(Cl)c1Cl [Example 20]", "122 to 125 °C"),
    ("CCC(CC)c1ccc(NC(=O)c2snc(Cl)c2Cl)cc1", "98 to 99 °C"),
    ("O=C(NCCOS(=O)OCCNC(=O)c1snc(Cl)c1Cl)c1snc(Cl)c1Cl", "70 to 75 °C"),
    ("Cc1ccc(NC(=O)c2snc(Cl)c2Cl)c(C)c1", "171 to 172 °C"),
    ("CCC(C)c1ccc(NC(=O)c2snc(Cl)c2Cl)cc1 (stereo not shown) [Example 16]", "83 to 85 °C"),
    ("O=C(Nc1ccccc1-c1ccccc1)c1snc(Cl)c1Cl [Example 21]", "83 to 84 °C (dec.)"),
]
